Documented Relative potency across a set of compounds
Target: UniProt P30969
Sequence (whole entry): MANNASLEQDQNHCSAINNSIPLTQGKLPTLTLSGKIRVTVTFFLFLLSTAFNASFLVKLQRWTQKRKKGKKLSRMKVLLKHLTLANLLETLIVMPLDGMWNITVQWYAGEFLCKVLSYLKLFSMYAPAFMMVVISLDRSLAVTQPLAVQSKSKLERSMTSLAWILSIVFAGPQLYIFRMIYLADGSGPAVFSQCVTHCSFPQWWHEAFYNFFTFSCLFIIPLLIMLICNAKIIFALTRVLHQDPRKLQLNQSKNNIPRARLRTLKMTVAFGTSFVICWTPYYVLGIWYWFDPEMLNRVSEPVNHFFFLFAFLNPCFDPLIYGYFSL
Assay: In vitro potency to inhibit GnRH-mediated LH secretion by cultured pituitary cells relative to [Ac-delta-Pro1,DFpa2,DTrp36]GnRH.
Type: functional, cell-based
Conditions: Pituitary gland cell

[
  {
    "smiles structure": "CC(=O)N[C@H](Cc1ccc2ccccc2c1)C(=O)N[C@H](Cc1ccc(Cl)cc1)C(=O)N[C@H](Cc1cccnc1)C(=O)N[C@@H](CO)C(=O)N(C)[C@@H](Cc1ccc(Nc2n[nH]c(N)n2)cc1)C(=O)N[C@H](Cc1ccc(Nc2n[nH]c(N)n2)cc1)C(=O)N[C@@H](CC(C)C)C(=O)N[C@@H](CCCCNC(C)C)C(=O)N1CCC[C@H]1C(=O)N[C@H](C)N",
    "Relative potency": 1.9
  },
  {
    "smiles structure": "CC(=O)N[C@H](Cc1ccc2ccccc2c1)C(=O)N[C@H](Cc1ccc(Cl)cc1)C(=O)N[C@H](Cc1cccnc1)C(=O)N[C@@H](CO)C(=O)N[C@@H](Cc1ccc(NC(=O)[C@@H](C)Nc2n[nH]c(N)n2)cc1)C(=O)N[C@H](Cc1ccc(NC(=O)[C@H](C)Nc2n[nH]c(N)n2)cc1)C(=O)N[C@@H](CC(C)C)C(=O)N[C@@H](CCCCNC(C)C)C(=O)N1CCC[C@H]1C(=O)N[C@H](C)N",
    "Relative potency": 0.4
  },
  {
    "smiles structure": "CC(=O)Nc1ccc(C[C@@H](NC(=O)[C@H](Cc2ccc(Nc3n[nH]c(N)n3)cc2)NC(=O)[C@H](CO)NC(=O)[C@@H](Cc2cccnc2)NC(=O)[C@@H](Cc2ccc(Cl)cc2)NC(=O)[C@@H](Cc2ccc3ccccc3c2)NC(C)=O)C(=O)N[C@@H](CC(C)C)C(=O)N[C@@H](CCCCNC(C)C)C(=O)N2CCC[C@H]2C(=O)N[C@H](C)N)cc1",
    "Relative potency": 0.82
  }
]

* * *

target: Gonadotropin-releasing hormone receptor (Rattus norvegicus); experiment: Effect in the anti ovulatory assay (AOA) in rats expressed as no. of rats ovulating/No of rats treated at 2.5 mg; 0/8; assay type: functional
endpoint name: No. of rats ovulated

[
  {
    "smiles structure": "CC(=O)N[C@H](Cc1ccc2ccccc2c1)C(=O)N[C@H](Cc1ccc(Cl)cc1)C(=O)N[C@H](Cc1cccnc1)C(=O)N[C@@H](CO)C(=O)N[C@@H](Cc1ccc(NC=O)cc1)C(=O)N[C@H](Cc1ccc(NC=O)cc1)C(=O)N[C@@H](CC(C)C)C(=O)N[C@@H](CCCCNC(C)C)C(=O)N1CCC[C@H]1C(=O)N[C@H](C)N",
    "target of assay": "Gonadotropin-releasing hormone receptor (Rattus norvegicus)",
    "endpoint name": "No. of rats ovulated",
    "val": 0
  },
  {
    "smiles structure": "CCC(=O)Nc1ccc(C[C@H](NC(=O)[C@H](CO)NC(=O)[C@@H](Cc2cccnc2)NC(=O)[C@@H](Cc2ccc(Cl)cc2)NC(=O)[C@@H](Cc2ccc3ccccc3c2)NC(C)=O)C(=O)N[C@H](Cc2ccc(NC(=O)CC)cc2)C(=O)N[C@@H](CC(C)C)C(=O)N[C@@H](CCCCNC(C)C)C(=O)N2CCC[C@H]2C(=O)N[C@H](C)N)cc1",
    "target of assay": "Gonadotropin-releasing hormone receptor (Rattus norvegicus)",
    "endpoint name": "No. of rats ovulated",
    "val": 0
  },
  {
    "smiles structure": "CCCC(=O)Nc1ccc(C[C@H](NC(=O)[C@H](CO)NC(=O)[C@@H](Cc2cccnc2)NC(=O)[C@@H](Cc2ccc(Cl)cc2)NC(=O)[C@@H](Cc2ccc3ccccc3c2)NC(C)=O)C(=O)N[C@H](Cc2ccc(NC(=O)CCC)cc2)C(=O)N[C@@H](CC(C)C)C(=O)N[C@@H](CCCCNC(C)C)C(=O)N2CCC[C@H]2C(=O)N[C@H](C)N)cc1",
    "target of assay": "Gonadotropin-releasing hormone receptor (Rattus norvegicus)",
    "endpoint name": "No. of rats ovulated",
    "val": 0
  },
  {
    "smiles structure": "CC(=O)Nc1ccc(C[C@@H](NC(=O)[C@H](Cc2ccc(Nc3n[nH]c(N)n3)cc2)NC(=O)[C@H](CO)NC(=O)[C@@H](Cc2cccnc2)NC(=O)[C@@H](Cc2ccc(Cl)cc2)NC(=O)[C@@H](Cc2ccc3ccccc3c2)NC(C)=O)C(=O)N[C@@H](CC(C)C)C(=O)N[C@@H](CCCCNC(C)C)C(=O)N2CCC[C@H]2C(=O)N[C@H](C)N)cc1",
    "target of assay": "Gonadotropin-releasing hormone receptor (Rattus norvegicus)",
    "endpoint name": "No. of rats ovulated",
    "val": 0
  },
  {
    "smiles structure": "CC(=O)Nc1ccc(C[C@H](NC(=O)[C@H](CO)NC(=O)[C@@H](Cc2cccnc2)NC(=O)[C@@H](Cc2ccc(Cl)cc2)NC(=O)[C@@H](Cc2ccc3ccccc3c2)NC(C)=O)C(=O)N[C@H](Cc2ccc(NC(C)=O)cc2)C(=O)N[C@@H](CC(C)C)C(=O)N[C@@H](CCCCNC(C)C)C(=O)N2CCC[C@H]2C(=O)N[C@@H](C)N)cc1",
    "target of assay": "Gonadotropin-releasing hormone receptor (Rattus norvegicus)",
    "endpoint name": "No. of rats ovulated",
    "val": 0
  }
]
